Recorded measurements of viability, one per entry
Experiment: SK-BR-3 cell growth inhibitors, pilot screen, 24 h, human (AID 572);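 note: compound exposure lasted between 18 and 24 h rather than exactly 24 h; 100% = carrier-treated control wells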
Details: SK-BR-3 viability, CellTiter-Glo luminescence, at 10 µM, active compounds read low
The source made the active and inactive calls.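 Rule for the calls: active = viability at or below 10% of carrier control in both of two separate runs; inconclusive = viability at or below 10% in only one of the two runs; inactive = the rest.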
measured-attribute: viability

>>> value("C/C(N)=C(/C#N)C(=O)COC(=O)c1cc(C)n(-c2ccc(F)cc2)c1C")
"91% (inactive)"
>>> value("O=C(c1cnsn1)N1CCN(c2ccccn2)CC1")
"122% (inactive)"
>>> value("Cc1ccccc1N1OC2C(=O)N(c3ccc(F)cc3)C(=O)C2C1c1ccccn1 (stereo not drawn)")
"130% (inactive)"
>>> value("COc1ccc(Cc2noc(-c3ccc(C)cc3)n2)cc1")
"91% (inactive)"
>>> value("CNC(=O)CC(C(=O)O)c1ccc(OC(C)C)cc1 (stereo not drawn)")
"105% (inactive)"
>>> value("O=C(O)CCc1ccc(-c2ccc(Br)cc2)n1CC(=O)O")
"102% (inactive)"
>>> value("O=C(CN1C(=O)CC(c2ccco2)Sc2ccccc21)Nc1ccccc1F (stereo not drawn)")
"82.5% (inactive)"
>>> value("O=C(Cn1ccc2ccccc2c1=O)NCCC(=O)NC1CCN(Cc2ccccc2)CC1")
"58% (inactive)"
>>> value("O=C(Cn1cccc1)N1CCN(C(c2ccccc2)c2ccccc2)CC1")
"102% (inactive)"
>>> value("CSc1nc2c(ccc3ccccc32)o1")
"114% (inactive)"
>>> value("Cc1cc2nc(C3CCN(CC4COc5ccccc5O4)CC3)[nH]c2cc1C (stereo not drawn)")
"98.5% (inactive)"
>>> value("Cc1cccc(N=C2NC(=O)CS2)c1C")
"108% (inactive)"
>>> value("O=C(C1CCCN(S(=O)(=O)c2cccnc2)C1)N1CCN(c2ccccn2)CC1 (stereo not drawn)")
"93.5% (inactive)"
>>> value("CCN(CC)S(=O)(=O)c1ccc(NC(=O)CN(c2cccc(F)c2)S(C)(=O)=O)cc1")
"96% (inactive)"
>>> value("C=CCn1c(COc2ccccc2F)nnc1SCC(=O)N1CC(=O)Nc2ccccc21")
"92% (inactive)"
>>> value("O=c1c2ccccc2nnn1CSc1nc2cc(Cl)ccc2c(=O)n1Cc1ccco1")
"102% (inactive)"
>>> value("O=C(Nc1ccon1)c1csc2c1CCCC2")
"92.5% (inactive)"
>>> value("CCOc1cc(NC(=O)c2ccco2)c(OCC)cc1NC(=O)Cc1cccc(OC)c1")
"107% (inactive)"
>>> value("OC(COc1ccccc1)CN1C2=NCCCN2c2ccccc21 (stereo not drawn)")
"80.5% (inactive)"
>>> value("CN(C)c1ccc2c(c1)OC(N)=C(C#N)C2c1cccc(F)c1 (stereo not drawn)")
"92% (inactive)"
>>> value("Cc1ccc(N(CC(=O)NCC2CCCO2)S(C)(=O)=O)cc1Cl (stereo not drawn)")
"106% (inactive)"
>>> value("COc1ccccc1NC(=O)CSc1nnc(-c2ccncc2)n1CC1CCCO1 (stereo not drawn)")
"97% (inactive)"
>>> value("CCOC(=O)c1c(NC(=O)c2ccn(CC)n2)sc2c1CCCC2")
"88% (inactive)"
